Where do these numbers come from? They come from paper PMC2756588.

Biological target: T1, Pex13, P80667
T1 sequence (P80667 295-386, looked up): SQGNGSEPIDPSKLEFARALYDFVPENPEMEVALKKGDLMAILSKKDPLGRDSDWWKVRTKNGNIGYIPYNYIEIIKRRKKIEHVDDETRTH
Assay: SPOT array
Details: median of control spots 1341
READOUT_KIND: SPOT intensity

| BINDER | SPOT intensity |
| --- | --- |
| APKREAPKPPANTSP | 7 |
| AAHKTKPSIPPKKVE | 2 |
| NFLRLLIGLPSQNEL | 47 |
| QRIRKIPGIPLMSVG | 90 |
| PHNPSPFFPPPDFND | 70 |

[I] RSRRSSFAYPQQVAI
[II] QPQRTAPKPPISAPR
[III] VFQFQMPTTPISTKM
Query block: Task field, ranking: reported SPOT intensity, descending order. Would you mind listing the labels in the order requested?
Result block: III, II, I
(III: 219, II: 44, I: 4)

[A] TKIRRRPQQPLTDFT
[B] FPGKKSPRLPHRNKK
Query block: Compare A and B by numeric SPOT intensity and name the larger one. To answer, give the label that identifies your chosen option.
Result block: B
(B: 16, A: 3)
